These data points were gathered from the supplement of paper PMC8728848.

molecular target: Gal(b1-4)GlcNAc(b1-2)Man(a1-3)[Gal(b1-4)GlcNAc(b1-2)Man(a1-6)]Man(b1-4)GlcNAc(b1-4)GlcNAc; experiment: glycan array binding signal (z-score within array); higher = stronger binding; settings: glycan notation: IUPAC condensed, linker removed
This excerpt belongs to a sample that is enriched for the strongest signals.
Please mark True if the recorded glycan array binding signal (z-score) is equal to or greater than -0.07, and False if it falls below.

Consider the worked cases shown below.
binder	assigned.class
Layilin (Mus musculus), Q8C351 (protein) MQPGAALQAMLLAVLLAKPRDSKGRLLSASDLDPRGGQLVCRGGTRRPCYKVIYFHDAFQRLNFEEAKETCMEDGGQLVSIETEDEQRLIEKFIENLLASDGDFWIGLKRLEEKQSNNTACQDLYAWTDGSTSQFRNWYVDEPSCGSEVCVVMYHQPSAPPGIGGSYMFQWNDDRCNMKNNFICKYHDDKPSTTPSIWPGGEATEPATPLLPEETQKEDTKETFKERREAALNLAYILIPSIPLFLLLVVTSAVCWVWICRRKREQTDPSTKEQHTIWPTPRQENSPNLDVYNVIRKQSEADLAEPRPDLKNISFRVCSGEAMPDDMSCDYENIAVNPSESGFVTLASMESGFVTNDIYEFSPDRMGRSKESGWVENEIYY	False
AMA (Arum maculatun) (protein) MAKLLLLLLLPAIVGLAVPRSAAAVGSNYMLSGETLNTDGRLTNGELTLIMQVDCNLVLYHGGWQSNTANNGRDCKLTLTDFGELVIKSGTGSTVWSSGSKQSMKGNYAAVVHPEGRLVIYGPSVFKINPSGAGLNGLPLRNIPLTNNMLFSGQVLYGDGTLSARNHKLVMQGDCNMVLYGGKYGWQSNTHGNGKYCFAMLTHKGELVIRDDDFKSVWSSKSSSKQGDYVFILQDDSLAIIYGPAVFSTGSKKMISMVTN	True

Textbook exercise: given the entry FBG4 (Homo sapiens), Q96EF6 (protein) MGARLSRRRLPADPSLALDALPPELLVQVLSHVPPRSLVTRCRPVCRAWRDIVDGPTVWLLQLARDRSAEGRALYAVAQRCLPSNEDKEEFPLCALARYCLRAPFGRNLIFNSCGEQGFRGWEVEHGGNGWAIEKNLTPVPGAPSQTCFVTSFEWCSKRQLVDLVMEGVWQELLDSAQIEICVADWWGARENCGCVYQLRVRLLDVYEKEVVKFSASPDPVLQWTERGCRQVSHVFTNFGKGIRYVSFEQYGRDVSSWVGHYGALVTHSSVRVRIRLS , state whether its glycan array binding signal (z-score) is greater than or equal to -0.07.
True
